Data provenance is PubChem BioAssay AID1918995.

System: 324938-238-R-J1-PDC complex spheroid growth, % test/control
Experiment: Anticancer human tumor 324938-238-R-J1-PDC patient-derived bladder carcinoma cell line growth inhibition [AhR]
Settings: second compound 1 µM; first compound 3 µM; stronger effect = lower value
Measured viability, T/C by item

- MOLECULE: "CCN(c1cc(-c2ccc(CN3CCOCC3)cc2)cc(C(=O)NCc2c(C)cc(C)[nH]c2=O)c1C)C1CCOCC1 + Cc1cncc(-c2nc(NCCc3c[nH]c4ccccc34)c3ncn(C(C)C)c3n2)c1"
  viability, T/C (%): 108
- MOLECULE: "O=C(C=Cn1cnc(-c2cc(C(F)(F)F)cc(C(F)(F)F)c2)n1)NNc1cnccn1 + Cc1cncc(-c2nc(NCCc3c[nH]c4ccccc34)c3ncn(C(C)C)c3n2)c1"
  viability, T/C (%): 31.4
- MOLECULE: "CCN(c1cc(-c2ccc(CN3CCOCC3)cc2)cc(C(=O)NCc2c(C)cc(C)[nH]c2=O)c1C)C1CCOCC1 + Cc1ccccc1N=Nc1ccc(NC(=O)c2ccnn2C)c(C)c1"
  viability, T/C (%): 93.2
- MOLECULE: "CCN(c1cc(-c2ccc(CN3CCOCC3)cc2)cc(C(=O)NCc2c(C)cc(C)[nH]c2=O)c1C)C1CCOCC1 + CC(CO)NC(=O)c1cc(-c2ccc(Cl)cc2)nn(-c2cnn(C)c2)c1=O"
  viability, T/C (%): 88.9
- MOLECULE: "O=C(C=Cn1cnc(-c2cc(C(F)(F)F)cc(C(F)(F)F)c2)n1)NNc1cnccn1 + Cc1ccccc1N=Nc1ccc(NC(=O)c2ccnn2C)c(C)c1"
  viability, T/C (%): 10.7
- MOLECULE: "O=C(C=Cn1cnc(-c2cc(C(F)(F)F)cc(C(F)(F)F)c2)n1)NNc1cnccn1 + CC(CO)NC(=O)c1cc(-c2ccc(Cl)cc2)nn(-c2cnn(C)c2)c1=O"
  viability, T/C (%): 14.2

###

System: 324938-238-R-J1-PDC complex spheroid growth, % test/control
Assay: Anticancer human tumor 324938-238-R-J1-PDC cell line growth inhibition [AhR];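 also: spheroids exposed to agents for seven days before viability read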
Settings: curve of first compound; second compound 3.16 µM
Measured IC50 by item
ENDPOINT NAME: IC50

- MOLECULE: "COc1cc(Nc2ncc3c(n2)-c2ccc(Cl)cc2C(c2c(F)cccc2OC)=NC3)ccc1C(=O)O + Cc1ccccc1N=Nc1ccc(NC(=O)c2ccnn2C)c(C)c1"
  VALUE: "66.2 nM"
- MOLECULE: "CC(C)CC(NC(=O)C(Cc1ccccc1)NC(=O)c1cnccn1)B(O)O (configuration not stated) + Cc1cncc(-c2nc(NCCc3c[nH]c4ccccc34)c3ncn(C(C)C)c3n2)c1"
  VALUE: "4.41 nM"
- MOLECULE: "CCc1c2c(nc3ccc(O)cc13)-c1cc3c(c(=O)n1C2)COC(=O)[C@]3(O)CC + CC(CO)NC(=O)c1cc(-c2ccc(Cl)cc2)nn(-c2cnn(C)c2)c1=O"
  VALUE: "< 0.949 nM"
- MOLECULE: "CC(C)c1c(-c2ccccc2)nc2c(C#N)c[nH]n2c1=O + Cc1cncc(-c2nc(NCCc3c[nH]c4ccccc34)c3ncn(C(C)C)c3n2)c1"
  VALUE: "> 10000 nM"
- MOLECULE: "COc1ccc([C@@H](O)c2cc(-c3ncnc4cc(N5CCOCC5)ccc34)c(F)cc2Cl)nn1 + CC(CO)NC(=O)c1cc(-c2ccc(Cl)cc2)nn(-c2cnn(C)c2)c1=O"
  VALUE: "> 10000 nM"
- MOLECULE: "Nc1ccccc1NC(=O)c1ccc(CNC(=O)OCc2cccnc2)cc1 + CC(CO)NC(=O)c1cc(-c2ccc(Cl)cc2)nn(-c2cnn(C)c2)c1=O"
  VALUE: "3250 nM"
- MOLECULE: "CC1COCCN1c1cc(-c2ccnn2C)c2ccnc(-c3ccn[nH]3)c2n1 (configuration not stated) + Cc1ccccc1N=Nc1ccc(NC(=O)c2ccnn2C)c(C)c1"
  VALUE: "309 nM"

###

Test system: 324938-238-R-J1-PDC complex spheroid growth, % test/control
Test: Anticancer human tumor 324938-238-R-J1-PDC cell line growth inhibition [AhR]; active = viability on the fitted dose curve at most 10% of control; inactive = the rest;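 also: spheroids exposed to agents for seven days before viability read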
Settings: second compound 10 µM; first compound 10 µM
Outcome codes: active, inactive

- MOLECULE: "CC1(C)CCC(CN2CCN(c3ccc(C(=O)NS(=O)(=O)c4ccc(NCC5CCOCC5)c([N+](=O)[O-])c4)c(Oc4cnc5[nH]ccc5c4)c3)CC2)=C(c2ccc(Cl)cc2)C1 + CC(CO)NC(=O)c1cc(-c2ccc(Cl)cc2)nn(-c2cnn(C)c2)c1=O"
  LABEL CLASS: "inactive"
- MOLECULE: "O=C(C=Cc1cccc(S(=O)(=O)Nc2ccccc2)c1)NO + CC(CO)NC(=O)c1cc(-c2ccc(Cl)cc2)nn(-c2cnn(C)c2)c1=O"
  LABEL CLASS: "active"
- MOLECULE: "CC1COCCN1c1cc(C2(S(C)(=N)=O)CC2)nc(-c2ccnc3[nH]ccc23)n1 (stereo not given) + CC(CO)NC(=O)c1cc(-c2ccc(Cl)cc2)nn(-c2cnn(C)c2)c1=O"
  LABEL CLASS: "inactive"
- MOLECULE: "NS(=O)(=O)OCC1CC(n2ccc3c(NC4CCc5ccccc54)ncnc32)CC1O (stereo not given) + CC(CO)NC(=O)c1cc(-c2ccc(Cl)cc2)nn(-c2cnn(C)c2)c1=O"
  LABEL CLASS: "inactive"
- MOLECULE: "COc1cccc2c1C(=O)c1c(O)c3c(c(O)c1C2=O)CC(O)(C(=O)CO)CC3OC1CC(N)C(O)C(C)O1 (stereo not given) + Cc1ccccc1N=Nc1ccc(NC(=O)c2ccnn2C)c(C)c1"
  LABEL CLASS: "active"

###

Measured pIC50 by item
Test system: 324938-238-R-J1-PDC complex spheroid growth, % test/control
Test: Anticancer human tumor 324938-238-R-J1-PDC cell line growth inhibition [AhR];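 also: spheroids exposed to agents for seven days before viability read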
Conditions: curve of first compound; second compound 1 µM
pIC50: −log10 of the molar value.

- COMPOUND: "Nc1ncn(C2CC(O)C(CO)S2)c(=O)n1 (configuration not stated) + CC(CO)NC(=O)c1cc(-c2ccc(Cl)cc2)nn(-c2cnn(C)c2)c1=O"
  EXPERIMENTAL TARGET: "324938-238-R-J1-PDC complex spheroid growth, % test/control"
  pIC50: "< 6.52"
- COMPOUND: "Cn1ncnc1C1c2n[nH]c(=O)c3cc(F)cc(c23)NC1c1ccc(F)cc1 (configuration not stated) + Cc1ccccc1N=Nc1ccc(NC(=O)c2ccnn2C)c(C)c1"
  EXPERIMENTAL TARGET: "324938-238-R-J1-PDC complex spheroid growth, % test/control"
  pIC50: "< 7.00"
- COMPOUND: "CC(C)CC(NC(=O)C(Cc1ccccc1)NC(=O)c1cnccn1)B(O)O (configuration not stated) + Cc1cncc(-c2nc(NCCc3c[nH]c4ccccc34)c3ncn(C(C)C)c3n2)c1"
  EXPERIMENTAL TARGET: "324938-238-R-J1-PDC complex spheroid growth, % test/control"
  pIC50: 8.38
- COMPOUND: "CCN(c1cc(-c2ccc(CN3CCOCC3)cc2)cc(C(=O)NCc2c(C)cc(C)[nH]c2=O)c1C)C1CCOCC1 + Cc1ccccc1N=Nc1ccc(NC(=O)c2ccnn2C)c(C)c1"
  EXPERIMENTAL TARGET: "324938-238-R-J1-PDC complex spheroid growth, % test/control"
  pIC50: "< 5.52"
- COMPOUND: "Nc1ncn(C2CC(O)C(CO)O2)c(=O)n1 (configuration not stated) + Cc1ccccc1N=Nc1ccc(NC(=O)c2ccnn2C)c(C)c1"
  EXPERIMENTAL TARGET: "324938-238-R-J1-PDC complex spheroid growth, % test/control"
  pIC50: "< 6.00"
- COMPOUND: "COc1cccc2c1C(=O)c1c(O)c3c(c(O)c1C2=O)CC(O)(C(=O)CO)CC3OC1CC(N)C(O)C(C)O1 (configuration not stated) + CC(CO)NC(=O)c1cc(-c2ccc(Cl)cc2)nn(-c2cnn(C)c2)c1=O"
  EXPERIMENTAL TARGET: "324938-238-R-J1-PDC complex spheroid growth, % test/control"
  pIC50: "> 7.50"
- COMPOUND: "CCc1c2c(nc3ccc(O)cc13)-c1cc3c(c(=O)n1C2)COC(=O)[C@]3(O)CC + Cc1cncc(-c2nc(NCCc3c[nH]c4ccccc34)c3ncn(C(C)C)c3n2)c1"
  EXPERIMENTAL TARGET: "324938-238-R-J1-PDC complex spheroid growth, % test/control"
  pIC50: "< 6.52"
- COMPOUND: "O=C(C=Cn1cnc(-c2cc(C(F)(F)F)cc(C(F)(F)F)c2)n1)NNc1cnccn1 + Cc1cncc(-c2nc(NCCc3c[nH]c4ccccc34)c3ncn(C(C)C)c3n2)c1"
  EXPERIMENTAL TARGET: "324938-238-R-J1-PDC complex spheroid growth, % test/control"
  pIC50: 5.96
- COMPOUND: "Nc1ccccc1NC(=O)c1ccc(CNC(=O)OCc2cccnc2)cc1 + CC(CO)NC(=O)c1cc(-c2ccc(Cl)cc2)nn(-c2cnn(C)c2)c1=O"
  EXPERIMENTAL TARGET: "324938-238-R-J1-PDC complex spheroid growth, % test/control"
  pIC50: 5.40
- COMPOUND: "O=C(c1cc(Cc2n[nH]c(=O)c3ccccc23)ccc1F)N1CCN(C(=O)C2CC2)CC1 + Cc1ccccc1N=Nc1ccc(NC(=O)c2ccnn2C)c(C)c1"
  EXPERIMENTAL TARGET: "324938-238-R-J1-PDC complex spheroid growth, % test/control"
  pIC50: "< 5.00"
- COMPOUND: "CC1COCCN1c1cc(C2(S(C)(=N)=O)CC2)nc(-c2ccnc3[nH]ccc23)n1 (configuration not stated) + Cc1cncc(-c2nc(NCCc3c[nH]c4ccccc34)c3ncn(C(C)C)c3n2)c1"
  EXPERIMENTAL TARGET: "324938-238-R-J1-PDC complex spheroid growth, % test/control"
  pIC50: "< 5.00"
- COMPOUND: "Cn1ncnc1C1c2n[nH]c(=O)c3cc(F)cc(c23)NC1c1ccc(F)cc1 (configuration not stated) + Cc1cncc(-c2nc(NCCc3c[nH]c4ccccc34)c3ncn(C(C)C)c3n2)c1"
  EXPERIMENTAL TARGET: "324938-238-R-J1-PDC complex spheroid growth, % test/control"
  pIC50: "< 7.00"
